Data credit: ChEMBL document CHEMBL1201862

- Tested on: NCI/ADR-RES
- assay_name: NCI tumour cell line growth inhibition, 48 h
Active and inactive are the calls of the source. Rule as the data show it: active = GI50 up to about 1.1 µM and inactive = higher.

molecule: Cc1ccc(C)c(NC(=O)NCc2ccc(Cl)cc2)c1
system_name: NCI/ADR-RES
GI50: > 58.1 µM (inactive)
//
molecule: CCCCNC(=S)Nc1nc(C(=O)NNC(=O)c2ccccc2)cs1
system_name: NCI/ADR-RES
GI50: 16.9 µM (inactive)
//
molecule: CN(C)c1ncnc2c1ncn2C1C=CC(COS(N)(=O)=O)C1 (stereo not drawn)
system_name: NCI/ADR-RES
GI50: > 100 µM (inactive)
//
molecule: O=S(=O)(c1ccccc1)N1CCCC(c2ccccc2)CC1 (stereo not drawn)
system_name: NCI/ADR-RES
GI50: 38 µM (inactive)
//
molecule: O=c1[nH]nc(-c2ccccc2)n1-n1cccc1
system_name: NCI/ADR-RES
GI50: > 100 µM (inactive)
//
molecule: CN(C)CCCOCCn1c2c(c3ccccc31)CCCC2
system_name: NCI/ADR-RES
GI50: 16.3 µM (inactive)
//
molecule: COC(=O)C1(C(=O)OC)N=C(C)OC1C(C)C (stereo not drawn)
system_name: NCI/ADR-RES
GI50: > 100 µM (inactive)
//
molecule: COc1cc2c[n+](C)c3c4cc(OC)c(OCc5ccccc5)cc4c(OCc4ccccc4)cc3c2cc1OC
system_name: NCI/ADR-RES
GI50: 84.7 µM (inactive)

----------
- System: HCC 2998
- assay_name: NCI tumour cell line growth inhibition, 48 h
Calls of active or inactive are those of the source. No stated cut-off is given here; in the data, active = GI50 up to about 1.1 µM and inactive = higher.
Outcomes: active, inactive

compound: NC1=NN(c2ccccc2)C(=O)C1/C(=N\NC(=O)c1cc2ccccc2cc1O)C(=O)Nc1cccc(C(F)(F)F)c1 (stereo not drawn)
system_name: HCC 2998
class_assignment: inactive
//
compound: Cc1cccc2c1Oc1cc(Cl)ccc1C2NC(=O)CCN1CCN(CCO)CC1 (stereo not drawn)
system_name: HCC 2998
class_assignment: inactive
//
compound: COc1cc2ccc3c4cc(OC)c(OC)cc4c[n+](C)c3c2cc1O
system_name: HCC 2998
class_assignment: inactive
//
compound: N#C/C(c1nc2ccccc2[nH]1)=c1\s/c(=C/c2ccccc2)c(=O)n1-c1ccccc1
system_name: HCC 2998
class_assignment: inactive
//
compound: Cc1cc2nc(N)n[n+]([O-])c2cc1C
system_name: HCC 2998
class_assignment: inactive
//
compound: CCN(CC)c1ccc(NC(=S)NN(C)C)cc1
system_name: HCC 2998
class_assignment: inactive
//
compound: CC(C)CCC[C@@H](C)C1CCC2[C@@H]3CC=C4C[C@@H](C(=O)NCCN(C)C)CC[C@]4(C)C3CC[C@@]21C (stereo partly drawn)
system_name: HCC 2998
class_assignment: inactive
//
compound: O=C(Nc1ccccc1)c1cc(S(=O)(=O)N2CCNC2=O)c(S)cc1Cl
system_name: HCC 2998
class_assignment: inactive
//
compound: O=C1CSC(c2cccc(Oc3ccccc3)c2)N1c1cccc(Cl)c1Cl (stereo not drawn)
system_name: HCC 2998
class_assignment: inactive
//
compound: CSC1=N[C@H](c2ccccc2)CS1
system_name: HCC 2998
class_assignment: inactive
//
compound: COc1ccc(N2C(=O)[C@H]3CC(C)c4c([nH]c5ccccc45)[C@H]3C2=O)cc1 (stereo partly drawn)
system_name: HCC 2998
class_assignment: inactive
//
compound: Cc1cccc(-n2c(C)nc3ccc(NC(=S)Nc4ccccc4)cc3c2=O)c1
system_name: HCC 2998
class_assignment: inactive
//
compound: CC[C@H](C)c1occ2c(O)c(C(=O)O)c(=O)cc-2c1C
system_name: HCC 2998
class_assignment: inactive
//
compound: CCOCNC(=O)N(COCC)COCC
system_name: HCC 2998
class_assignment: inactive
//
compound: Cc1ccc(S(=O)(=O)OC[C@@H]2CO2)cc1
system_name: HCC 2998
class_assignment: inactive
//
compound: CS(=O)(=O)Nc1ccc(Nc2c3ccccc3nc3ccccc23)cc1
system_name: HCC 2998
class_assignment: inactive
//
compound: CC(C)(C)[Si](C)(C)OCC1CCC(n2cnc3c(=O)[nH]cnc32)O1 (stereo not drawn)
system_name: HCC 2998
class_assignment: inactive
//
compound: COc1ccc(-n2c(C)nc3ccc(NC(=S)Nc4ccccc4)cc3c2=O)cc1
system_name: HCC 2998
class_assignment: inactive
//
compound: CCOc1ccc(NCc2cc(OC)c(OC)c(OC)c2)cc1
system_name: HCC 2998
class_assignment: active
//
compound: O=C1N[C@H]2c3c(Cl)sc(Cl)c3C(=O)[C@H]2O1
system_name: HCC 2998
class_assignment: inactive
//
compound: O=[N+]([O-])c1ccc(C[P+]2(c3ccccc3)CCCCC2)cc1.[O-][Cl+3]([O-])([O-])[O-]
system_name: HCC 2998
class_assignment: inactive
//
compound: CC(=O)OCC(OC(C)=O)C(OC(C)=O)C(C=NN(C(C)=O)S(=O)(=O)c1ccc(/C=C2\NC(=O)NC2=O)cc1)OC(C)=O (stereo not drawn)
system_name: HCC 2998
class_assignment: inactive
//
compound: COc1ccc(NC(=O)C(=O)C2NC(=S)NC2=O)c(OC)c1 (stereo not drawn)
system_name: HCC 2998
class_assignment: inactive
//
compound: CC(C)[C@](O)(C(=O)OCC1=CCN2CC[C@@H](O)[C@@H]12)[C@H](C)O
system_name: HCC 2998
class_assignment: inactive
//
compound: Cc1cn(C2CCC(/C=N\O)O2)c(=O)[nH]c1=O (stereo not drawn)
system_name: HCC 2998
class_assignment: inactive
//
compound: COc1ccc(Cc2nn(C3OC(COC(C)=O)C(OC(C)=O)C(OC(C)=O)C3OC(C)=O)c(=S)n(-c3ccc(OC)cc3)c2=O)cc1 (stereo not drawn)
system_name: HCC 2998
class_assignment: inactive
//
compound: COC(=O)CCC1=C(CC(=O)OC)C(C)(OC)N/C1=N/C(=O)OCc1ccccc1 (stereo not drawn)
system_name: HCC 2998
class_assignment: inactive
//
compound: COc1ccc2c(c1OC)C[C@@H]1c3c(cc4c(c3-2)OCO4)CCN1C
system_name: HCC 2998
class_assignment: inactive
//
compound: Cc1ccc(N2C(=O)/C(=C3\SC(C(N)=O)=C(N)N3c3ccccc3)SC2=S)cc1
system_name: HCC 2998
class_assignment: inactive
//
compound: N#CCCN(c1ccc(C=O)cc1)S(=O)(=O)c1ccccc1
system_name: HCC 2998
class_assignment: inactive
//
compound: CCCCS/C(=C(/C#N)C(N)=O)c1cc2c([nH]1)CCCC2
system_name: HCC 2998
class_assignment: inactive
//
compound: COc1cc(C2c3cc4c(cc3[C@@H](N(C)c3ccc(N(C)C)cc3)C3COC(=O)C23)OCO4)cc(OC)c1O (stereo partly drawn)
system_name: HCC 2998
class_assignment: active
//
compound: C=C1c2nc3ccccc3n2C=C(c2ccccc2)N1c1ccc(C)cc1
system_name: HCC 2998
class_assignment: inactive
